Hi there, I'd appreciate the recorded Cmax for every entry that follows.
experiment: Cmax in C57BL/6 mouse lung at 30 mg/kg, po by LC-MS/MS analysis; type: ADME, organism-based; design: dose 30 mg/kg, route oral
State just the number; it will be interpreted in µM.

[in] Quick one: Cmax of Cl.NCc1cc(Oc2cccc(C(=O)N3CC[C@@H](O)C3)c2)nc(C(F)(F)F)c1 ?
[out] 9.13

[in] Quick one: CONC(=O)c1cccc(Oc2cc(CN)cc(C(F)(F)F)n2)c1.Cl
[out] 8.78

[in] Quick one: Cl.Cl.NCc1cc(Oc2cccc(C(=O)N3CC[C@@H](N)C3)c2)nc(C(F)(F)F)c1
[out] 1.23

[in] Quick one: NCc1cc(O[C@H]2CCCN(C(=O)Nc3ccccc3)C2)nc(C(F)(F)F)c1
[out] 30

* * *

assay: Cmax in C57BL/6 mouse plasma at 30 mg/kg, po by LC-MS/MS analysis; assay type: ADME, organism-based; parameters: dose 30 mg/kg, route oral
recorded-endpoint: Cmax
Could you give the number and then its unit, please?

[in] Quick one: Cmax of Cl.NCc1cc(Oc2cccc(C(=O)NCCn3cnnn3)c2)nc(C(F)(F)F)c1 ?
[out] 1990 nM

[in] Quick one: NCc1cc(O[C@H]2CCCN(C(=O)Nc3ccccc3)C2)nc(C(F)(F)F)c1
[out] 1900 nM

[in] Quick one: Cl.NCc1cc(Oc2cccc(C(=O)Nc3ccccc3)c2)nc(C(F)(F)F)c1
[out] 860 nM

[in] Quick one: Cl.NCc1cc(Oc2cccc(C(=O)NC[C@@H](O)CO)c2)nc(C(F)(F)F)c1
[out] 2770 nM

[in] Quick one: Cl.Cl.NCc1cc(Oc2cccc(C(=O)N3CC[C@@H](N)C3)c2)nc(C(F)(F)F)c1
[out] 670 nM

[in] Quick one: Cl.NCc1cc(Oc2cccc(C(=O)N3CC[C@@H](O)C3)c2)nc(C(F)(F)F)c1
[out] 5130 nM

[in] Quick one: CONC(=O)c1cccc(Oc2cc(CN)cc(C(F)(F)F)n2)c1.Cl
[out] 630 nM

[in] Quick one: Cl.NCc1cc(Oc2cccc(C(=O)N3C[C@@H](O)[C@H](F)C3)c2)nc(C(F)(F)F)c1 (racemic)
[out] 3090 nM

[in] Quick one: Cl.NCc1cc(Oc2cccc(C(=O)NCCS(N)(=O)=O)c2)nc(C(F)(F)F)c1
[out] 1040 nM

* * *

target: Lysyl oxidase homolog 2 (Homo sapiens, UniProt Q9Y4K0); experiment: Inhibition of recombinant human LOXL2 expressed in human whole blood assessed as reduction of H2O2 production from oxidative deamination of DAP preincubated for 2 hrs followed by substrate addition measured every 2 mins for 1 hr by amplex red reagent-based fluorescence assay
Sequence (Q9Y4K0 whole entry): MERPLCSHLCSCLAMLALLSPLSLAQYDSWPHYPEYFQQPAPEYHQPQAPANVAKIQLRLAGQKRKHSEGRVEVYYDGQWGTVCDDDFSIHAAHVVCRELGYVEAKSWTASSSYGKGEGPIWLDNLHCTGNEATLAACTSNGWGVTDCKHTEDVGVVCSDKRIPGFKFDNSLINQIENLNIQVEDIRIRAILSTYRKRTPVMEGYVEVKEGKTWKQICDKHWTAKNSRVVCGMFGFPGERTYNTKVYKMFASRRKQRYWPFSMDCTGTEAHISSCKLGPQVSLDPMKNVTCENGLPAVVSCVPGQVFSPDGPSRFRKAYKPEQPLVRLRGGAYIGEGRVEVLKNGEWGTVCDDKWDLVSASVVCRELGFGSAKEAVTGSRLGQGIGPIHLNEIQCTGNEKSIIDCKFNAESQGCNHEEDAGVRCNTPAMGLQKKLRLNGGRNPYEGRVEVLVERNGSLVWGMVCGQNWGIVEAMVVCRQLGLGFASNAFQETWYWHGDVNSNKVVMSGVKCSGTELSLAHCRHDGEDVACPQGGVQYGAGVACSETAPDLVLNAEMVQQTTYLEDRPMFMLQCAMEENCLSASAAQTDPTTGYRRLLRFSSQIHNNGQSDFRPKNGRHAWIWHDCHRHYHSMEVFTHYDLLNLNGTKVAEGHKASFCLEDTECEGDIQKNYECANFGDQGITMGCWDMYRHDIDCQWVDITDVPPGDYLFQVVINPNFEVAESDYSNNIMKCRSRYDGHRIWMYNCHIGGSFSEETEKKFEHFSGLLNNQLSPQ
Class definitions on IC50: interval 1: < 1000 nM; interval 2: ≥ 1000 nM and < 5000 nM; interval 3: ≥ 5000 nM

[in] Which category fits this record: COCCNC(=O)c1cccc(Oc2cc(CN)ccn2)c1
[out] interval 2

[in] Quick one: NCc1ccnc(Oc2cccc(C(=O)NCc3ccccc3)c2)c1
[out] interval 2

[in] Quick one: Cl.Cl.NCc1cc(Oc2cccc(C(=O)N3CC[C@@H](N)C3)c2)nc(C(F)(F)F)c1
[out] interval 1

[in] Quick one: NCc1ccnc(Oc2cccc(C(=O)Nc3ccc(F)cc3)c2)c1
[out] interval 2

[in] Quick one: COc1ccc(NC(=O)c2cccc(Oc3cc(CN)ccn3)c2)cc1
[out] interval 2

[in] Quick one: NCc1cc(Oc2cccc(C(=O)NCc3cc4ccccc4s3)c2)nc(C(F)(F)F)c1
[out] interval 3

[in] Quick one: NCc1ccnc(Oc2ccc(C(=O)Nc3ccccc3)cc2)c1
[out] interval 3

[in] Quick one: COCCNC(=O)c1ccc(Oc2cc(CN)ccn2)cc1
[out] interval 3

[in] Quick one: Cl.NCc1cc(Oc2cccc(C(=O)NCCS(N)(=O)=O)c2)nc(C(F)(F)F)c1
[out] interval 1

[in] Quick one: Cl.NCc1cc(Oc2cccc(C(=O)NC[C@@H](O)CO)c2)nc(C(F)(F)F)c1
[out] interval 1

[in] Quick one: NCc1cc(Oc2cccc(Oc3ccccc3)c2)nc(C(F)(F)F)c1
[out] interval 3

[in] Quick one: NCc1ccnc(Oc2cccc(C(=O)Nc3ccccc3)c2)c1
[out] interval 2

[in] Quick one: Cl.NCc1cc(Oc2cccc(C(=O)NCCn3cnnn3)c2)nc(C(F)(F)F)c1
[out] interval 1

[in] Quick one: NCc1cc(O[C@H]2CCCN(C(=O)Nc3ccccc3)C2)nc(C(F)(F)F)c1
[out] interval 2

[in] Quick one: CONC(=O)c1cccc(Oc2cc(CN)cc(C(F)(F)F)n2)c1.Cl
[out] interval 1

[in] Quick one: N=C(N)c1cccc(CNC(=O)c2cccc(Oc3cc(CN)ccn3)c2)c1
[out] interval 3

[in] Quick one: NCc1ccnc(OC2CCCCC2)c1
[out] interval 3

[in] Quick one: Cl.NCc1cc(Oc2cccc(C(=O)Nc3ccccc3)c2)nc(C(F)(F)F)c1
[out] interval 2

[in] Quick one: NCc1ccnc(Oc2cccc(C(=O)N3CCc4ccccc4C3)c2)c1
[out] interval 3

[in] Quick one: Cl.NCc1cc(Oc2cccc(C(=O)N3CC[C@@H](O)C3)c2)nc(C(F)(F)F)c1
[out] interval 1

[in] Quick one: Cl.NCc1cc(Oc2cccc(C(=O)N3C[C@@H](O)[C@H](F)C3)c2)nc(C(F)(F)F)c1 (racemic)
[out] interval 1

[in] Quick one: NCc1ccnc(Oc2cccc(C(=O)NCc3cc4ccccc4s3)c2)c1
[out] interval 2

[in] Quick one: NCc1ccnc(Oc2cccc(C(=O)Nc3ccc(C(=O)O)cc3)c2)c1
[out] interval 2

[in] Quick one: NCc1cc(O[C@@H]2CCCN(C(=O)Nc3ccccc3)C2)nc(C(F)(F)F)c1
[out] interval 3
